TARGET_UNDER_TEST: Keap1 C23S (Homo sapiens, UniProt Q14145, C23S)
Construct: His (N)
Sequence (Q14145 whole entry C23S): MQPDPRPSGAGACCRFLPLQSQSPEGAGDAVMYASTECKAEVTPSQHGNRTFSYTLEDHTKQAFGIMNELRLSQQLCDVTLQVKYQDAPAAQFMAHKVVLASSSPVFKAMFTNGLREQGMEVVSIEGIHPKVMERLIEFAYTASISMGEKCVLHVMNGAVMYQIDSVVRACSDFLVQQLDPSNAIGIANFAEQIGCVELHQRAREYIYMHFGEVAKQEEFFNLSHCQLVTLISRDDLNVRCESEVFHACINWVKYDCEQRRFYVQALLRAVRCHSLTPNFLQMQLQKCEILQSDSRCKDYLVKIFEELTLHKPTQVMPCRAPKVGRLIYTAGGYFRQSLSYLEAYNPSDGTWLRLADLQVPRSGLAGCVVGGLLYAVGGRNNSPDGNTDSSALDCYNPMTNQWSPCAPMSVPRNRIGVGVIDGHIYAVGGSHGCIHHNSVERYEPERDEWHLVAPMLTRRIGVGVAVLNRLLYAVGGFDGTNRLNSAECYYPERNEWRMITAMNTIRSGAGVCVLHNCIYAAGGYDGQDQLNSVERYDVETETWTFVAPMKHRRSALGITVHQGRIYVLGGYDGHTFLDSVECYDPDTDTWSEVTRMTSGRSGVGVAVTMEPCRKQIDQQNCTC
PROCEDURE_SUMMARY: ITC titration of PBA with Keap1-C23S
CONDITION_INFO: 25 ℃
PROPERTY_MEASURED: Kd (µM)

[
  {
    "MOLECULE": "C=C(COC(=O)C=Cc1ccc(O)c(O)c1)C(O)COC1OC(CO)C(O)C(O)C1O (stereo not shown) [PBA, pubescenoside A]",
    "REPORTED": 9.78
  }
]

###

TARGET_UNDER_TEST: Keap1 C77S/C434S (Homo sapiens, UniProt Q14145, C434S/C77S)
Construct: His (N)
Sequence (Q14145 whole entry C77S/C434S): as the sequence (Q14145 whole entry C23S) above, with S23C, C77S, C434S counted along it
PROCEDURE_SUMMARY: ITC titration of PBA with Keap1-C77S/C434S
CONDITION_INFO: ITC, 25 ℃, Keap1 C77S/C434S double mutant

[
  {
    "COMPOUND": "C=C(COC(=O)C=Cc1ccc(O)c(O)c1)C(O)COC1OC(CO)C(O)C(O)C1O (stereo not shown) [PBA, pubescenoside A]",
    "UNIT_LABEL": "µM",
    "Kd": 38.6
  }
]
